assay: Microsomal stability assay, dog; format: in vitro ADME; settings: metabolic stability, dog liver microsomes 0.5 mg/mL, substrate 3 uM
readout: MS Dog THalf (min)

# example entries with known answers
# compound, MS Dog THalf / min
measured = [
    ("O=c1c2cc(-c3ccc(OC(F)(F)F)cc3)ccc2nnn1Cc1noc(C2CC2)n1", 284),
    ("O=c1c2cc(-c3ccc(OC(F)(F)F)cc3)ccc2cnn1CCOc1ccccn1", 56),
    ("O=C1c2cc(-c3ccc(C(F)(F)F)cc3)ccc2OCN1Cc1ccccn1", 210),
    ("O=C1c2cc(-c3ccc(C(F)(F)F)cc3)ccc2SCN1Cc1ncccc1F", 120),
    ("O=c1c2cc(-c3ccc(OC(F)(F)F)cc3)ccc2nnn1Cc1coc(C2CC2)n1", 76),
    ("O=C1c2cc(-c3ccc(OC(F)(F)F)cc3)ccc2SCN1Cc1ncccc1F", 75),
    ("O=C(c1ccccn1)N1CCc2ccc(-c3ccc(C(F)(F)F)cc3)cc2C1", 313),
]

(a) O=c1c2cc(-c3ccc(OC(F)(F)F)cc3)ccc2cnn1CCOc1ncccn1
(b) CCOC(=O)N1CCC(=O)C(n2nnc3ccc(-c4ccc(OC(F)(F)F)cc4)cc3c2=O)C1 (stereo not drawn)
Prompt: Lowest MS Dog THalf? choose a or b Write down the label of the entry you select.
Response: b
(b: 6 min, a: 51 min)

---

Form field: inhibition at 1 µM (one value per entry).
molecular target: UniProt:Q14524; experiment: Late INa screening assay (QPatch whole cell patch clamp); assay type: cell-based; settings: percent block of late INa, compound at 1 μM, 10 μM Tefluthrin, HEK293 hNav1.5; read-out: Late INa 1 μM
Give the value, in units of %, as a plain number.

# chem_smiles, measurement_target, inhibition at 1 µM (%)
records = [
    ("O=c1c2cc(-c3ccc(OC(F)(F)F)cc3)ccc2cnn1CCn1cncn1", "UniProt:Q14524", 26),
    ("Cn1c(CCn2ncc3ccc(-c4ccc(OC(F)(F)F)cc4)cc3c2=O)nc2ccccc21", "UniProt:Q14524", 16),
    ("O=c1c2cc(-c3ccc(OC(F)(F)F)cc3)ccc2nnn1Cc1noc(C2CC2)n1", "UniProt:Q14524", 68),
    ("N#Cc1cccc(Cn2ncc3ccc(-c4ccc(OC(F)(F)F)cc4)cc3c2=O)n1", "UniProt:Q14524", 21),
    ("O=C(Cc1ncccn1)N1CCc2ccc(-c3ccc(C(F)(F)F)cc3)cc2C1", "UniProt:Q14524", 20),
    ("Cc1nc(Cn2ncc3ccc(-c4ccc(OC(F)(F)F)cc4)cc3c2=O)no1", "UniProt:Q14524", 42),
]

Prompt: // fetch inhibition at 1 µM given entry `O=C(N1CCCC1)N1CCc2ccc(-c3ccc(OC(F)(F)F)cc3)cc2C1`
Response: 36

Prompt: Identify inhibition at 1 µM associated with the compound `O=c1c2cc(-c3ccc(OC(F)(F)F)cc3)ccc2nnn1C1CCNCC1`
Response: 33

Prompt: Give the reported value of inhibition at 1 µM for this record: `CN(C(=O)N1CCc2ccc(-c3ccc(C(F)(F)F)cc3)cc2C1)c1ccccc1`
Response: 29

---

Molecular target: wild-type human cardiac sodium channel, hNav1.5 (late INa) (Homo sapiens)
Sequence (Q14524 whole entry): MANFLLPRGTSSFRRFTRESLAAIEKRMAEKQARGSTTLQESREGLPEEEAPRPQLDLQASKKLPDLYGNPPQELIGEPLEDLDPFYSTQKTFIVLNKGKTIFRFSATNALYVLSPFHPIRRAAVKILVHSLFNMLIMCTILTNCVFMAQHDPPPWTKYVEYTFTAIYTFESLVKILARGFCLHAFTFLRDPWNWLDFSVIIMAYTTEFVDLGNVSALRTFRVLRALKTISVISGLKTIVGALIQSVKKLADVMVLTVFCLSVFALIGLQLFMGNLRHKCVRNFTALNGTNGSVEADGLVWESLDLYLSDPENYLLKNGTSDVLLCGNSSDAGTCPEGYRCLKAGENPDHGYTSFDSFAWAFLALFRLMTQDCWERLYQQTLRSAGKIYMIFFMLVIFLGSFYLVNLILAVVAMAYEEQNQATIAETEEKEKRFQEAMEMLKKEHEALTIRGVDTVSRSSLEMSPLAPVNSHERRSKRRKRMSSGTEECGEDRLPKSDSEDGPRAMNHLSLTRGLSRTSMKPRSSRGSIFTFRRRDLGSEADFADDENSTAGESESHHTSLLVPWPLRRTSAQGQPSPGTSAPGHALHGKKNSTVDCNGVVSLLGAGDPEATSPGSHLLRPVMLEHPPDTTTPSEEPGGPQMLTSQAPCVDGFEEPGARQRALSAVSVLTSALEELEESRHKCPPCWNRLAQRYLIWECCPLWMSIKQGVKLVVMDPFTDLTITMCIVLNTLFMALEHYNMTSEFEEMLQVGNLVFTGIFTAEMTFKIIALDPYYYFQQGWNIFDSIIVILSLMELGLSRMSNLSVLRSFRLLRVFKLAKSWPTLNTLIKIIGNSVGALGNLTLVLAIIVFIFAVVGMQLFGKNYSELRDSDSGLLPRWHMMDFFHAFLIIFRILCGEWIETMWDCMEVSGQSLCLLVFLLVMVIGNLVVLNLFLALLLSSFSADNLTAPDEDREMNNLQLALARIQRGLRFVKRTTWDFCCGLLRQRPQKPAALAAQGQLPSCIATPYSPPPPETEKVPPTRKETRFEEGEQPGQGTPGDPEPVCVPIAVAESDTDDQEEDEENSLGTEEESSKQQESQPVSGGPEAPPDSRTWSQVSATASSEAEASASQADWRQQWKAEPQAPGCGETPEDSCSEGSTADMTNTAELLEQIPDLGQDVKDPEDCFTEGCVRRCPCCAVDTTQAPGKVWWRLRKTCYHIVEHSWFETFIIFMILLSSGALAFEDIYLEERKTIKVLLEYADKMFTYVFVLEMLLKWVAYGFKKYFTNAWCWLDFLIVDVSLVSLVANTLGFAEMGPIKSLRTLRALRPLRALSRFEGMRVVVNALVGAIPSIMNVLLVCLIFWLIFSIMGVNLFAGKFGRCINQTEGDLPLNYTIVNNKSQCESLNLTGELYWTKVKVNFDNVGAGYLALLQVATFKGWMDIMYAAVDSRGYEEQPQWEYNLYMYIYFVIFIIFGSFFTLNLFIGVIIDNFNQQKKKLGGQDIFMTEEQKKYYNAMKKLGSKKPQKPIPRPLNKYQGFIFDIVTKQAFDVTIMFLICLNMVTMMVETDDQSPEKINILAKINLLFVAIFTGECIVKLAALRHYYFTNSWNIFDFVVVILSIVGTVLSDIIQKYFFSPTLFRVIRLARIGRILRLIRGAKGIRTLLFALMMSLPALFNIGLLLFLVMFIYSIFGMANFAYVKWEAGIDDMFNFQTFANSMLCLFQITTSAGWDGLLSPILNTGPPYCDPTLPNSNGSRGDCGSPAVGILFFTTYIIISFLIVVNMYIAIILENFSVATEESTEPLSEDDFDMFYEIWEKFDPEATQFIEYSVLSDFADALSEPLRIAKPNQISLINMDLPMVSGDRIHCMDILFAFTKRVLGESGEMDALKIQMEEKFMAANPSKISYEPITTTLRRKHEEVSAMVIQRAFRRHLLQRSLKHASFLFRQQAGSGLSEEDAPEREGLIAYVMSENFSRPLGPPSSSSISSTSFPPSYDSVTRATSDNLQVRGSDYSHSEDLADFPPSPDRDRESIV
Experiment: Late INa screening assay (QPatch whole cell patch clamp)
Assay type: cell-based
Conditions: percent block of late INa, compound at 1 μM, 10 μM Tefluthrin, HEK293 hNav1.5; read-out: Late INa 1 μM
Description: The late sodium current (Late INa) and peak sodium current (Peak INa) assays are performed on an automated electrophysiology platform, QPatch 16× (Sophion Bioscience, Copenhagen, Denmark), which uses the whole cell patch clamp technique to measure currents through the cell membrane of up to 16 cells at a time. […] Currents through open sodium channels are automatically recorded and stored in the Sophion Bioscience Oracle database (Sophion Bioscience, Copehagen, Denmark). […]
# inhibition at 1 µM listing for each entry below
Kindly provide the numeric value in % only, without the unit symbol.

Take a look at these entries with their results.
# compound, inhibition at 1 µM, %
records = [
    ("Cc1nn(C)cc1C(=O)N1CCc2ccc(-c3ccc(C(F)(F)F)cc3)cc2C1", 24),
    ("O=c1c2cc(-c3ccc(OC(F)(F)F)cc3)ccc2cnn1CCOc1nccc(C2CC2)n1", 58),
]

Prompt: Tell me its inhibition at 1 µM given `Cc1nc(Cn2nnc3ccc(-c4ccc(OC(F)(F)F)cc4)cc3c2=O)oc1C` as the entry.
Response: 23

Prompt: Determine from records and report inhibition at 1 µM for CCOC(=O)N1CCC(=O)C(n2nnc3ccc(-c4ccc(OC(F)(F)F)cc4)cc3c2=O)C1 (stereo not drawn)
Response: 31

Prompt: Identify the reported inhibition at 1 µM for the following entry. `O=c1c2cc(-c3ccc(OC(F)(F)F)cc3)ccc2cnn1CCOc1ncccn1`
Response: 75

Prompt: In one line, give reported inhibition at 1 µM of the entry `O=c1c2cc(-c3ccc(OC(F)(F)F)cc3)ccc2nnn1CC1(Cn2ccnc2)CC1` .
Response: 25

Prompt: Assign inhibition at 1 µM to the following record: `O=C1c2cc(C#Cc3ccc(C(F)(F)F)cc3)ccc2CCN1Cc1ncccn1`
Response: 20

Prompt: Provide measured inhibition at 1 µM value, entry: `O=C1c2cc(-c3ccc(OC(F)(F)F)cc3)ccc2SCN1Cc1ccccn1`
Response: 47

Prompt: Quote inhibition at 1 µM reported for `O=C1c2cc(-c3ccc(OC(F)(F)F)cc3)ccc2SCN1Cc1ncccc1F` please.
Response: 67

Prompt: Output inhibition at 1 µM of `O=C(c1[nH]cnc1F)N1CCc2ccc(-c3ccc(C(F)(F)F)cc3)cc2C1`
Response: 17

Prompt: Identify measured inhibition at 1 µM corresponding to `O=c1c2cc(-c3ccc(OC(F)(F)F)cc3)ccc2cnn1CCOc1cnccn1`
Response: 47

Prompt: Provide inhibition at 1 µM value for the following compound: `O=c1c2cc(-c3ccc(OC(F)(F)F)cc3)ccc2nnn1Cc1noc(-c2ccccn2)n1`
Response: 52

Prompt: Provide only the value of recorded inhibition at 1 µM for CC1CCN(C(=O)N2CCc3ccc(-c4ccc(C(F)(F)F)cc4)cc3C2)C1 (stereo not drawn)
Response: 27

Prompt: Please give the documented inhibition at 1 µM of `O=c1c2cc(-c3ccc(OC(F)(F)F)cc3)ccc2nnn1Cc1ccccc1`
Response: 23

Prompt: Could you please provide reported inhibition at 1 µM for `O=C(NCc1ccco1)N1CCc2ccc(-c3ccc(C(F)(F)F)cc3)cc2C1` ? Thanks!
Response: 31

Prompt: Query inhibition at 1 µM for `CC1CN(C(=O)N2CCc3ccc(-c4ccc(C(F)(F)F)cc4)cc3C2)C1`
Response: 24

Prompt: Please look at this compound and report its inhibition at 1 µM: `Cc1cc(Cn2nnc3ccc(-c4ccc(OC(F)(F)F)cc4)cc3c2=O)no1`
Response: 47

Prompt: Fill in reported inhibition at 1 µM for this entry: `O=C1c2cc(-c3ccc(OC(F)(F)F)cc3)ccc2OCN1Cc1ncccn1`
Response: 62
